// values below are reported kon
Target: T1, human IL-23 (human, UniProt Q9NPF7 20-189; P29460 23-328)
T1 construct: Bought recombinant heterodimeric cytokine (eBioscience 34-8239-85 for panning; R&D Systems for the splenocyte assay); also called hIL-23; hIL23
T1 sequence (looked up) 1: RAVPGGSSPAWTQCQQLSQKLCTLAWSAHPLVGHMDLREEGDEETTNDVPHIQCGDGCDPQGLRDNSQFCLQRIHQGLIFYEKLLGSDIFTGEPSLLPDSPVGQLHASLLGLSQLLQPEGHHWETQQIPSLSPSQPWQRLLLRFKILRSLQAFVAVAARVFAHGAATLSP
T1 sequence (looked up) 2: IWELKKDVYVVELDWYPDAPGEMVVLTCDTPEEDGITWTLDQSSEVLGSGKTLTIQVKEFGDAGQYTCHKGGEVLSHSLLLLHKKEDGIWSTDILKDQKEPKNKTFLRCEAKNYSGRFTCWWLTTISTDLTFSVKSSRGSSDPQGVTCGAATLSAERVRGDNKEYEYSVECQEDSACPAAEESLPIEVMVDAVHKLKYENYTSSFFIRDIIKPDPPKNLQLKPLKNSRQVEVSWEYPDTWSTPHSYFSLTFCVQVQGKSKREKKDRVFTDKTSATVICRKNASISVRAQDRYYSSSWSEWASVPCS
Experiment: kinetic ELISA, soluble polypeptide
Respond with the figure and its unit, in that order.

Reference set, count: 7
MA14 (designed binder) MSIEQIQTEIASIQEVIAGIQKYIYSMTGGSGGSGGMSIEEIQKQIAAIQCQIAAIQKQIYAMTGSGGGGSGMSIEEIQKQIAAIQNQIVAIYKQIMAMGG = 200000 M⁻¹ s⁻¹
MA23 (designed binder) MSIQQIQKEIANIQEVIAAIQKWIYLMTGGSGGSGGMSIEEIQKQIAAIQCQIAAIQKQIYAMTGSGGGGSGMSIEEIQKQIAAIQEQIVAIYKQIMAMPS = 450000 M⁻¹ s⁻¹
MAcons (designed binder, also called polypeptide 15) single chain Alphabody: MSIQQIQKEIAQIQEVIAAIQKWIYSMTGGSGGSGGGGSGGSGGMSIEEIQKQIAAIQCQIAAIQKQIYAMTGSGGGGSGMSIEEIQKQIAAIQDQIVAIYKQIMAMSG = 2.5e+06 M⁻¹ s⁻¹
MB38 (designed binder) MSIQEIQKEIKQIQEVIAGIQKYIYGMTGGSGGSGGMSIEEIQKQIAAIQCQIAAIQKQIYAMTGSGGGGSGMSIEEIQKQIAAIQNQILAIYKQIMAMPQ = 1e+06 M⁻¹ s⁻¹
MA5 (designed binder) MSIKQIQKEIAQIQEVIAAIQKWIYRMTGGSGGSGGMSIEEIQKQIAAIQCQIAAIQKQIYAMTGSGGGGSGGSGGGGSGMSIEEIQKQIAAIQDQIVAIYKQIMAMSS = 4.5e+06 M⁻¹ s⁻¹
MB67 (designed binder) MSIQKIQKEITNIQEVIAAIQKYIYTMTGGSGGSGGMSIEEIQKQIAAIQCQIAAIQKQIYAMTGSGGGGSGGSGGGGSGMSIEEIQKQIAAIQRQILAIYKQIMAMST = 1.6e+06 M⁻¹ s⁻¹
MB64 (designed binder) MSIQQIQKEITQIQAVIAGIQKYIYRMTGGSGGSGGGGSGGSGGMSIEEIQKQIAAIQCQIAAIQKQIYAMTGSGGGGSGMSIEEIQKQIAAIQGQIVAIYKQIMAMAT = 1.1e+06 M⁻¹ s⁻¹

Let us examine a further case.
Entry MB43 (designed binder) MSIEEIQKEIKNIQEVIAAIQKYIYTMTGGSGGSGGMSIEEIQKQIAAIQCQIAAIQKQIYAMTGSGGGGSGGSGGGGSGMSIEEIPKQIAAIQDQIIAIYKQIMAMTR , kon reported as 1.3e+06 M⁻¹ s⁻¹
